- measurement.target: 1B1 IgM
- assay.text: SPR binding of synthetic oligosaccharides to 1B1 IgM surface
- Parameters: species or system mouse
- experimental.context: 1:1 binding model; table: two runs, text: one value per oligosaccharide; read-out: KD
property: pKd
Units for pKd: none; it is -log10 of a concentration expressed in mol/L.

# count of solved cases: 2
[[record]]
molecule = "CO[C@@H]1[C@H](O)[C@@H](O[C@H]2[C@H](OC)[C@H](O)[C@@H](O[C@H]3[C@H](OC)[C@H](O)[C@@H](O)O[C@@H]3C)O[C@@H]2C)O[C@H](C)[C@H]1O [trisaccharide]"
property = "pKd"
recorded_measurement = 5.85

[[record]]
molecule = "CO[C@@H]1[C@H](O)[C@@H](O[C@H]2[C@H](OC)[C@H](O)[C@@H](O[C@H]3[C@H](OC)[C@H](O)[C@@H](O[C@H]4[C@H](OC)[C@H](O)[C@@H](O)O[C@@H]4C)O[C@@H]3C)O[C@@H]2C)O[C@H](C)[C@H]1O [tetrasaccharide]"
property = "pKd"
recorded_measurement = 6.18


Next item in the queue.
May I ask what pKd has been recorded for CO[C@@H]1[C@H](O)[C@@H](O[C@H]2[C@H](OC)[C@H](O)[C@@H](O[C@H]3[C@H](OC)[C@H](O)[C@@H](O[C@H]4[C@H](OC)[C@H](O)[C@@H](O[C@H]5[C@H](OC)[C@H](O)[C@@H](O)O[C@@H]5C)O[C@@H]4C)O[C@@H]3C)O[C@@H]2C)O[C@H](C)[C@H]1O [pentasaccharide] ? 6.26

###

- measurement.target: 1B1 IgM
- assay.text: SPR binding of synthetic oligosaccharides to 1B1 IgM surface
- Parameters: species or system mouse
- experimental.context: steady-state analysis; read-out: KD, steady state affinity
property: pKd
Units for pKd: none; it is -log10 of a concentration expressed in mol/L.

May I ask what pKd has been recorded for CO[C@@H]1[C@H](O)[C@@H](O[C@H]2[C@H](OC)[C@H](O)C(O)O[C@@H]2C)O[C@H](C)[C@H]1O (stereo partly shown) [disaccharide] ? 4.08

The measurements presented in this section are drawn from patent US20250161428A1.
